testDescription: blockers of RIG-like receptor reporter activation – cell-based, Sendai virus stimulus, luciferase, 10K MLSCN set, TLR/RLR signaling modifier project, primary screen (AID 602276);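 further: firefly luciferase from ISG56 promoter only with Renilla not read in this screen; 0% = Sendai virus plus DMSO and 100% = medium plus DMSO without virus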
experimentalSetup: HEK293 RL24 IRF3 luciferase reporter, at 10 µM, active compounds read high
Catalogue of inhibition readings, one per entry.
API: value field is a number in %; no unit string.

compound	inhibition [%]
Cc1cccc(NC(=O)CSc2nnc(-c3cc(C)n(-c4ccccc4)c3C)o2)c1C	5.08

Now look at this entry.
Challenge: I have this compound here, CCCC1c2ccc(C)n2CCN1C(=O)Nc1ccccc1Cl (stereo not given) , and I need its recorded inhibition.
Response given: -53.4

====

systemTested: Voltage-gated potassium channel subunit beta-2 (Rattus norvegicus) (UniProt P62483)
Sequence (P62483 whole entry, looked up): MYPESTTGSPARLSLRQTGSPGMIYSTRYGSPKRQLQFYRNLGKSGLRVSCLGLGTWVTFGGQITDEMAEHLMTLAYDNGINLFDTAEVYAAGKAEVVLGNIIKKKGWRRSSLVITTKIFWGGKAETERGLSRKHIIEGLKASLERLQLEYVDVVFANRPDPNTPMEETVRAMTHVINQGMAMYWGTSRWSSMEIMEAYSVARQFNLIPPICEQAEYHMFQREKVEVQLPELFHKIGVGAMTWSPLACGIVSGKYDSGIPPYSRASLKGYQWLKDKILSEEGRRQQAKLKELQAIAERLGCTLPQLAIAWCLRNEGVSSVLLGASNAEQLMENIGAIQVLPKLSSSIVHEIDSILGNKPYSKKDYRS
testDescription: inhibitors of rat Kvbeta2 reductase activity – biochemical, NADPH fluorescence, primary screen (AID 622);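 further: slope of raw intensity against log time taken from 70 to 1610 s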
experimentalSetup: recombinant KvBeta, 4-cyanobenzaldehyde reduction, at 10 µM, active compounds read high
Would you mind labelling by fluorescence slope? At or over -0.5 is Y, under is N.

compound	assignedCategory
CCOC(=O)Cn1c(CN2CCN(c3cccc(Cl)c3)CC2)nc2c1c(=O)[nH]c(=O)n2C	N
CC(=O)N(CCN(C(C)=O)c1ccccc1)c1ccccc1	Y
CCOC(=O)N1CCN(S(=O)(=O)c2ccc(F)c(C(=O)Nc3cc(C)cc(C)c3)c2)CC1	Y
Cc1ccc(-c2cc(C(F)F)nc(NCC3CCCO3)n2)cc1 (stereo unspecified)	N
C/C=C(\C)c1nnc(NC(=O)OCC)s1	Y
CCOC(=O)N1CCC(NC(=O)c2cnn3ccccc23)CC1	N

Challenge: Is it the case that Cc1cc(C(=O)NCCN2CCN(c3cccc(Cl)c3)CC2)n(-c2ccccc2)n1 has fluorescence slope reaching or exceeding -0.5?
Response given: N

Challenge: Test whether the compound Cc1cc(C)cc(NC(=O)CCNS(=O)(=O)c2ccc3c(c2)oc(=O)n3C)c1 records fluorescence slope of -0.5 or higher.
Response given: N

Challenge: Could you verify whether the entry Cc1cccc2sc(NC(=O)Cn3cccc3)nc12 shows fluorescence slope of no less than -0.5?
Response given: N

====

testDescription: endothelial E-selectin expression blockers – imaging, HUVEC, immunofluorescence, MLSMR starter and 10KST1 sets, primary screen (AID 487);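 further: signal is fraction of cell area covered by stained E-selectin grains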
experimentalSetup: HUVEC TNFalpha-induced E-selectin immunofluorescence imaging, at 2 µM; active compounds read high
reportedMetric: inhibition (%)
Please respond with the number in % and leave the unit unwritten.

Solved entries:
compound	assayValue
O=C(CCn1cccc1)N1CCc2ccccc21	-12
O=C1CC(N2CCOCC2)C(=O)N1c1ccccc1Cl (stereo not drawn)	-25.3
N#Cc1c(-c2ccccc2)nc(N2CCCCCC2)[nH]c1=O	-43.6
CN1CCN(C(=O)NC2CCCN2S(=O)(=O)c2ccc(Cl)cc2)CC1 (stereo not drawn)	31.3

Challenge: For the compound shown here, CCN(CC)CCCN1C(=O)C(O)=C(C(=O)c2ccco2)C1c1ccc(C)o1 (stereo not drawn) , give the reported inhibition.
Response given: -22.2

Challenge: Can you share its inhibition? I mean this compound: CCOC(=O)c1ccc(NC(=O)CCc2c(C)nc3ncnn3c2C)cc1
Response given: -138

Challenge: Find the recorded inhibition belonging to COCCn1nnnc1C(C(C)C)N1CCN(C(=O)c2ccco2)CC1 (stereo not drawn) and report it.
Response given: -23.9

Challenge: Which inhibition is listed for CC(C)C(c1nnnn1CC1CCCO1)N1CCN(Cc2ccc3c(c2)OCO3)CC1 (stereo not drawn) ?
Response given: -55.1
